Where these numbers come from: patent US9504729B2

- assay.details: in vitro
- measurement.conditions: pig
parameter.measured: cytotoxicity (%)
# unit: % | format: bare number

Ask | Answer with the recorded cytotoxicity for the compound listed here: CS(=O)(=O)Nc1ccc(Nc2c3ccccc3nc3ccccc23)cc1 [Compound 32]
Reply | 6.82

Ask | Answer with the recorded cytotoxicity for the compound listed here: CN1CCN(c2ccc([N+](=O)[O-])c3no[n+]([O-])c23)CC1 [Compound 9]
Reply | 7.7

Ask | Answer with the recorded cytotoxicity for the compound listed here: Cc1cc(OCc2nc(N)nc(N)c2-c2ccc(Cl)c(Cl)c2)ccc1[N+](=O)[O-] [Compound 22]
Reply | 6.75

Others:
Ask | Answer with the recorded cytotoxicity for the compound listed here: O=[As](O)(O)c1ccc(Cc2ccc([As](=O)(O)O)cc2)cc1 [Compound 69]
Reply | 8.26

Ask | Answer with the recorded cytotoxicity for the compound listed here: CC1(C)N=C(N)N=C(N)N1CCCCc1ccccc1.Cl [Compound 11, hydrochloride]
Reply | 18.7

Ask | Answer with the recorded cytotoxicity for the compound listed here: CCCCC[CH2][Hg]1[S+]=C2N=C(N)Nc3[nH]c[n+]1c32 [Compound 50]
Reply | 13.7

Ask | Answer with the recorded cytotoxicity for the compound listed here: Cc1c(Cl)cc(C(C)(C)C)c(O)c1Cc1c(C)c(Cl)cc(C(C)(C)C)c1O [Compound 17]
Reply | 7.34

----------
- System: angiogenesis genes in dermal microvascular endothelial cells
- assay.details: Real time RT-PCR of angiogenesis gene expression during endothelial tube formation
- Format: cell-based
- measurement.conditions: 1 μM SM, 24 hours
- Description: For gene expression studies, three independent experiments were run for each SM tested. […] Fluorescence was measured in every cycle and a melting curve was run after the PCR by increasing temperature from 50 to 96° C. […] The genes that were monitored were selected based on their relevance to the angiogenesis process. […]
parameter.measured: Log2 fold-change of gene expression: NRP1
The answer should be a number; do not append a unit.

Study these solved cases before continuing.
Ask | Answer with the recorded Log2 fold-change of gene expression: NRP1 for the molecule listed here: CC1CCN(CC[S-])CC1.O.O.[Cl][Pt+]
Reply | −2.3

Ask | Answer with the recorded Log2 fold-change of gene expression: NRP1 for the molecule listed here: COc1cc2cc(c1Cl)N(C)C(=O)CC(OC(=O)C(C)C)C1(C)OC1C(C)C1CC(O)(NC(=O)O1)C(OC)/C=C/C=C(\C)C2 (stereo not drawn)
Reply | 0.8

Ask | Answer with the recorded Log2 fold-change of gene expression: NRP1 for the molecule listed here: O=C1C(=Cc2ccccc2)C(NC2CCCCC2)c2ccccc21 (stereo not drawn)
Reply | −2.0

Ask | Answer with the recorded Log2 fold-change of gene expression: NRP1 for the molecule listed here: COc1ccc(CC2C(=O)NC(C)C(=O)N(C)C3Cc4ccc(cc4)Oc4cc(ccc4O)CC(C(=O)NC(C)C(=O)NC(C)C(=O)N2C)N(C)C3=O)cc1 (stereo not drawn)
Reply | −2.6

Ask | Answer with the recorded Log2 fold-change of gene expression: NRP1 for the molecule listed here: COC(=O)C1CC(=O)C(C(=O)OC)CC1=O (stereo not drawn)
Reply | −3.0

Moving on to another molecule below.
Ask | Answer with the recorded Log2 fold-change of gene expression: NRP1 for the molecule listed here: CCC(=O)OCN1C(=O)C=CC1=O
Reply | −0.5

----------
Measured Log2 fold-change of gene expression: Lrrk1 of individual entries
- Tested on: angiogenesis genes in dermal microvascular endothelial cells
- assay.details: Real time RT-PCR of angiogenesis gene expression during endothelial tube formation
- Assay type: cell-based
- measurement.conditions: 1 μM SM, 24 hours
- Protocol: For gene expression studies, three independent experiments were run for each SM tested. […] Fluorescence was measured in every cycle and a melting curve was run after the PCR by increasing temperature from 50 to 96° C. […] The genes that were monitored were selected based on their relevance to the angiogenesis process. […]
The answer should be a number; do not append a unit.

Ask | Answer with the recorded Log2 fold-change of gene expression: Lrrk1 for the molecule listed here: COc1ccc(CC2C(=O)NC(C)C(=O)N(C)C3Cc4ccc(cc4)Oc4cc(ccc4O)CC(C(=O)NC(C)C(=O)NC(C)C(=O)N2C)N(C)C3=O)cc1 (stereo not drawn)
Reply | 0.3

Ask | Answer with the recorded Log2 fold-change of gene expression: Lrrk1 for the molecule listed here: O=C1C(=Cc2ccccc2)C(NC2CCCCC2)c2ccccc21 (stereo not drawn)
Reply | −1.8

Ask | Answer with the recorded Log2 fold-change of gene expression: Lrrk1 for the molecule listed here: COc1cc2cc(c1Cl)N(C)C(=O)CC(OC(=O)C(C)C)C1(C)OC1C(C)C1CC(O)(NC(=O)O1)C(OC)/C=C/C=C(\C)C2 (stereo not drawn)
Reply | −0.1

Ask | Answer with the recorded Log2 fold-change of gene expression: Lrrk1 for the molecule listed here: CCC(=O)OCN1C(=O)C=CC1=O
Reply | −2.9

Ask | Answer with the recorded Log2 fold-change of gene expression: Lrrk1 for the molecule listed here: COC(=O)C1CC(=O)C(C(=O)OC)CC1=O (stereo not drawn)
Reply | −0.5

Ask | Answer with the recorded Log2 fold-change of gene expression: Lrrk1 for the molecule listed here: CC1CCN(CC[S-])CC1.O.O.[Cl][Pt+]
Reply | −1.5

----------
- System: angiogenesis genes in dermal microvascular endothelial cells
- assay.details: Real time RT-PCR of angiogenesis gene expression during endothelial tube formation
- Type: cell-based
- measurement.conditions: 1 μM SM, 24 hours
Mark Fulfilled only for Log2 fold-change of gene expression: ITGAV values smaller than -0.9; exact matches and larger values are Not fulfilled.

# count of solved cases: 3
Ask | Dear reviewer, please state whether O=C1C(=Cc2ccccc2)C(NC2CCCCC2)c2ccccc21 (stereo not drawn) [compound 150117] has Log2 fold-change of gene expression: ITGAV strictly beneath -0.9.
Reply | Fulfilled

Ask | Dear reviewer, please state whether COC(=O)C1CC(=O)C(C(=O)OC)CC1=O (stereo not drawn) [Compound 122567] has Log2 fold-change of gene expression: ITGAV strictly beneath -0.9.
Reply | Fulfilled

Ask | Dear reviewer, please state whether CCC(=O)OCN1C(=O)C=CC1=O [compound 19630] has Log2 fold-change of gene expression: ITGAV strictly beneath -0.9.
Reply | Not fulfilled

Turning now to a further molecule:
Ask | Dear reviewer, please state whether COc1cc2cc(c1Cl)N(C)C(=O)CC(OC(=O)C(C)C)C1(C)OC1C(C)C1CC(O)(NC(=O)O1)C(OC)/C=C/C=C(\C)C2 (stereo not drawn) [compound 292222] has Log2 fold-change of gene expression: ITGAV strictly beneath -0.9.
Reply | Not fulfilled

----------
- Tested on: angiogenesis genes in dermal microvascular endothelial cells
- assay.details: Real time RT-PCR of angiogenesis gene expression during endothelial tube formation
- Type: cell-based
- measurement.conditions: 1 μM SM, 24 hours
Measured Log2 fold-change of gene expression: COL4A3 of individual entries

Ask | Answer with the recorded Log2 fold-change of gene expression: COL4A3 for the molecule listed here: CC1CCN(CC[S-])CC1.O.O.[Cl][Pt+]
Reply | 1.9

Ask | Answer with the recorded Log2 fold-change of gene expression: COL4A3 for the molecule listed here: COc1ccc(CC2C(=O)NC(C)C(=O)N(C)C3Cc4ccc(cc4)Oc4cc(ccc4O)CC(C(=O)NC(C)C(=O)NC(C)C(=O)N2C)N(C)C3=O)cc1 (stereo not drawn)
Reply | 3.2

Ask | Answer with the recorded Log2 fold-change of gene expression: COL4A3 for the molecule listed here: COC(=O)C1CC(=O)C(C(=O)OC)CC1=O (stereo not drawn)
Reply | 1.9

Ask | Answer with the recorded Log2 fold-change of gene expression: COL4A3 for the molecule listed here: CCC(=O)OCN1C(=O)C=CC1=O
Reply | 0.1

Ask | Answer with the recorded Log2 fold-change of gene expression: COL4A3 for the molecule listed here: O=C1C(=Cc2ccccc2)C(NC2CCCCC2)c2ccccc21 (stereo not drawn)
Reply | 2.4

Others:
Ask | Answer with the recorded Log2 fold-change of gene expression: COL4A3 for the molecule listed here: COc1cc2cc(c1Cl)N(C)C(=O)CC(OC(=O)C(C)C)C1(C)OC1C(C)C1CC(O)(NC(=O)O1)C(OC)/C=C/C=C(\C)C2 (stereo not drawn)
Reply | 2.0

----------
- Test system: angiogenesis genes in dermal microvascular endothelial cells
- assay.details: Real time RT-PCR of angiogenesis gene expression during endothelial tube formation
- Format: cell-based
- measurement.conditions: 1 μM SM, 24 hours
parameter.measured: Log2 fold-change of gene expression: TIMP3
The answer should be a number; do not append a unit.

Study these solved cases before continuing.
Ask | Answer with the recorded Log2 fold-change of gene expression: TIMP3 for the molecule listed here: CC1CCN(CC[S-])CC1.O.O.[Cl][Pt+] [compound 292596]
Reply | −1.2

Ask | Answer with the recorded Log2 fold-change of gene expression: TIMP3 for the molecule listed here: COc1ccc(CC2C(=O)NC(C)C(=O)N(C)C3Cc4ccc(cc4)Oc4cc(ccc4O)CC(C(=O)NC(C)C(=O)NC(C)C(=O)N2C)N(C)C3=O)cc1 (stereo not drawn) [compound 259969]
Reply | −0.6

Ask | Answer with the recorded Log2 fold-change of gene expression: TIMP3 for the molecule listed here: COc1cc2cc(c1Cl)N(C)C(=O)CC(OC(=O)C(C)C)C1(C)OC1C(C)C1CC(O)(NC(=O)O1)C(OC)/C=C/C=C(\C)C2 (stereo not drawn) [compound 292222]
Reply | −0.4

Ask | Answer with the recorded Log2 fold-change of gene expression: TIMP3 for the molecule listed here: CCC(=O)OCN1C(=O)C=CC1=O [compound 19630]
Reply | 0.7

Ask | Answer with the recorded Log2 fold-change of gene expression: TIMP3 for the molecule listed here: O=C1C(=Cc2ccccc2)C(NC2CCCCC2)c2ccccc21 (stereo not drawn) [compound 150117]
Reply | −2.7

Moving on to another molecule below.
Ask | Answer with the recorded Log2 fold-change of gene expression: TIMP3 for the molecule listed here: COC(=O)C1CC(=O)C(C(=O)OC)CC1=O (stereo not drawn) [Compound 122567]
Reply | −4.3
